# Tested System: T1, Human complement C4 protein (Millipore Sigma, Cat. 204886) (human, UniProt P0C0L4 20-675; P0C0L4 680-1446; P0C0L4 1454-1744, limits assumed, natural sulfotyrosines)
# T1 construct: mature
# T1 sequence (P0C0L4 20-675 limits assumed, form in doubt, chain 1 of 3): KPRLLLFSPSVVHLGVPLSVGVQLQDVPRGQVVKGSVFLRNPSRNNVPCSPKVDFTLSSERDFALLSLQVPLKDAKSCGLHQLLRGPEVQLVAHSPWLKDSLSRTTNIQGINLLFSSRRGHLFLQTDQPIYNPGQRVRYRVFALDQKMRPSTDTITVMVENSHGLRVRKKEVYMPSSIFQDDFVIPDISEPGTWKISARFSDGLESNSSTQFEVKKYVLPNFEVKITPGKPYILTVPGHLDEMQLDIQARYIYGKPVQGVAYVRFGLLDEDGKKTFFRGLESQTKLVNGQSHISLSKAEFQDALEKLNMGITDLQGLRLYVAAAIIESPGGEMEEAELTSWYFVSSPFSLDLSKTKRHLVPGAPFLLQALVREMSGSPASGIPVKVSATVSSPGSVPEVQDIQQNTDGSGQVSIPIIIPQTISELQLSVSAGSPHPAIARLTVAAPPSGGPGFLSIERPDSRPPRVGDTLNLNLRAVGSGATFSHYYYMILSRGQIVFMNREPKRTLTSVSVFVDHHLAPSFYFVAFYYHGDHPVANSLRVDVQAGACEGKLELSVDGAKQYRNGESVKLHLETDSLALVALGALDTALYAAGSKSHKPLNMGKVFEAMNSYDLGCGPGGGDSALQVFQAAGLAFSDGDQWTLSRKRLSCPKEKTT
# T1 sequence (P0C0L4 680-1446 limits assumed, form in doubt, chain 2 of 3): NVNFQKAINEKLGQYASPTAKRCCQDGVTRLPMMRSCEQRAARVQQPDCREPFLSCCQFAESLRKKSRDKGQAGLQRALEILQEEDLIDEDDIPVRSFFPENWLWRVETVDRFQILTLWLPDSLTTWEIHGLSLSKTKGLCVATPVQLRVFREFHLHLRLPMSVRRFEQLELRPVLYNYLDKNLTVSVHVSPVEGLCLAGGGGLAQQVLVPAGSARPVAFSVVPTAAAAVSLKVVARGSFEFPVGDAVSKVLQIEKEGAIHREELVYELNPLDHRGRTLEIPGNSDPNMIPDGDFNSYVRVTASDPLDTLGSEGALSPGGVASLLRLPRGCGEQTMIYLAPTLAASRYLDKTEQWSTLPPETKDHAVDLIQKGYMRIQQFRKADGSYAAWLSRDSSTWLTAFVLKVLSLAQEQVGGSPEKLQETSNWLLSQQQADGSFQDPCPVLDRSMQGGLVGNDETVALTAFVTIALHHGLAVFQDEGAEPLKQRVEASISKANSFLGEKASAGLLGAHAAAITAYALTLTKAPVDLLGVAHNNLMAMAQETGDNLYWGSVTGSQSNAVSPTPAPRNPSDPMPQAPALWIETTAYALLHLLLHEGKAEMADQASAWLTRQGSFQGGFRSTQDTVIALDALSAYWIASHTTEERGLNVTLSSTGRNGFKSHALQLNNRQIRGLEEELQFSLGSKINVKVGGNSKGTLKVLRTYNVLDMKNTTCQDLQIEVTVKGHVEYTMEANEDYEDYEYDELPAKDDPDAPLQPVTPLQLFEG
# T1 sequence (P0C0L4 1454-1744 limits assumed, form in doubt, chain 3 of 3): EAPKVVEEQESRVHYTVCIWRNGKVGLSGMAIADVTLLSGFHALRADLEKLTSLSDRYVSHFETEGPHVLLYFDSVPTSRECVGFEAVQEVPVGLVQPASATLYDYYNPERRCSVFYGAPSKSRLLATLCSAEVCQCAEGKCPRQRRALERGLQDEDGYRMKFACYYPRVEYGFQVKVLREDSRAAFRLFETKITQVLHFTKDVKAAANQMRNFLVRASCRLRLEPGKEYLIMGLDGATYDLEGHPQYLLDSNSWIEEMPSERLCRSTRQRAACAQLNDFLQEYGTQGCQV
# Experimental Protocol: ELISA, 50 nM mAb
Parameter: binding normalized to PSGL-1. Scope: all listed entries.

Binder	binding normalized to PSGL-1
03B04 (antibody, IgG4, V domains shown) VH: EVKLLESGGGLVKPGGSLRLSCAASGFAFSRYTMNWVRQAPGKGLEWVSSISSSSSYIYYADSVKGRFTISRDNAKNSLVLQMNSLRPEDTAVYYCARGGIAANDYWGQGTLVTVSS VL: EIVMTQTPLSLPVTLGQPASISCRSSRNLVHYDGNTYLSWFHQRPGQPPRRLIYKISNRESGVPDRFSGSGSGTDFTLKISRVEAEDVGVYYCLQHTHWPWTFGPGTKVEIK	0.56
18F02 (antibody, V domains shown, From mouse immunisation; only variable domains given) VH: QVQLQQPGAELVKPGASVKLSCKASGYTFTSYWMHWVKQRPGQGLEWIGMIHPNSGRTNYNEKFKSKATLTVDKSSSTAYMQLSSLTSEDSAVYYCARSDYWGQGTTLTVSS VL: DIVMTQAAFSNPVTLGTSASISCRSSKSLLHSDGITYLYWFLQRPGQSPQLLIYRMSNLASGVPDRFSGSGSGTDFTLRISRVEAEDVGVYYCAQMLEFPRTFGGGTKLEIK	0.03

Origin of values: patent US20220396632A1
